Target: T1, M10
T1 construct: also called PD1 mutant M10
Assay: ELISA, 1 ug/ml
As shown below, each of these binders has a reported OD490 value.
quantity: OD490

{"binder": "PD1-52E8 (antibody, V domains shown, scFv-phage in the screening ELISA; whole IgG in the other assays) VH: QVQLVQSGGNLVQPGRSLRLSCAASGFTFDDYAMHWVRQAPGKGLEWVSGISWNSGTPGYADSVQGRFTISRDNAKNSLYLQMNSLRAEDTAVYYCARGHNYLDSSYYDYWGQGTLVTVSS VL: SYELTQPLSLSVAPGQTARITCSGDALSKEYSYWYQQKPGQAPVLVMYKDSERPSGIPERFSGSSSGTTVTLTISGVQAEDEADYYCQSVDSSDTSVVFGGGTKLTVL", "result": 1}
{"binder": "PD1-45D6 (antibody, V domains shown, scFv-phage in the screening ELISA; whole IgG in the other assays) VH: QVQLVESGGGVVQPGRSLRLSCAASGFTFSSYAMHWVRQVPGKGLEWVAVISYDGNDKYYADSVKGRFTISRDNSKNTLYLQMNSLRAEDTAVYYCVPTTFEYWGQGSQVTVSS VL: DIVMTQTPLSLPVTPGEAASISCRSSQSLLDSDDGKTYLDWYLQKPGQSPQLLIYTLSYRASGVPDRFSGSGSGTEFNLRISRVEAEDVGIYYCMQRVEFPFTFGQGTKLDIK", "result": 3.9}
{"binder": "PD1-41C9 (antibody, V domains shown, scFv-phage in the screening ELISA; whole IgG in the other assays) VH: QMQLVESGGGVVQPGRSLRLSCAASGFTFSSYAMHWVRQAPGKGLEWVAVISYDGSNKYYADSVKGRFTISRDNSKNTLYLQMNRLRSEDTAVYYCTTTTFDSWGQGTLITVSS VL: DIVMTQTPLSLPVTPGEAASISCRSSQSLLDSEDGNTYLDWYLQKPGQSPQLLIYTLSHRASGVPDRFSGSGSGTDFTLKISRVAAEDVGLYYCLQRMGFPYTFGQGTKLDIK", "result": 3.4}
{"binder": "PD1-49A2 (antibody, V domains shown, scFv-phage in the screening ELISA; whole IgG in the other assays; also called Parent 49A2) VH: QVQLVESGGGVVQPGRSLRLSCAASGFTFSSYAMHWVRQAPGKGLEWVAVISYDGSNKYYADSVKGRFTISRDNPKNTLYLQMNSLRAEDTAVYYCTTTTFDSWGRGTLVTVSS VL: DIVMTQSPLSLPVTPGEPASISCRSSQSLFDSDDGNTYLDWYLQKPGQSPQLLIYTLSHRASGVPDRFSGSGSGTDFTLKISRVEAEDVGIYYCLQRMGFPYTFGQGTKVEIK", "result": 2.6}
